Reported X = 340 values are given for each entry in this list.
- EXPERIMENTAL_SYSTEM: T1, human Dectin-1 (biosensor tests of Tables 3, 4A and 9; construct not stated) (human, UniProt Q9BXN2 66-247, limits assumed)
- T1 construct: also called hDectin-1
- T1 sequence (looked up): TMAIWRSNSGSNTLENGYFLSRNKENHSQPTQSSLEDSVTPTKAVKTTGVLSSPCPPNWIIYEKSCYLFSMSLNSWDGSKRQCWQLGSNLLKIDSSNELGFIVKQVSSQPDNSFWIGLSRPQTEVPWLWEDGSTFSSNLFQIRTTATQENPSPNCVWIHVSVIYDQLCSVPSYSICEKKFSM
- ASSAY_SUMMARY: Octet response; further: time not given here
Enter the number alone.

2M24A.1.27 (Fab, V domains shown, Fab; also called 2M24.1.27) VH: QVQLVQSGAEVKKPGASVKVSCKSSGYTFTDYYIHWVRQAPGQGLEWMGWINPNSGDTNYAQKFQGRITMTRDTSISTAYLELSRLRSDDTAVFYCARNSGSYSFGYWGQGTLVTVSS VL: DIQMTQSPSSVSASVGDRVTITCRASQGISSWLAWYQQKPGKAPKLLIFGASSLQSGVPSRFSGSGSGTDFTLTVSSLQPEDFATYYCQQAYSFAFTFGPGTKVDIE :: 0.483

X = 340 reading for 2M24A.1.29 (Fab, V domains shown, Fab; also called 2M24.1.29) VH: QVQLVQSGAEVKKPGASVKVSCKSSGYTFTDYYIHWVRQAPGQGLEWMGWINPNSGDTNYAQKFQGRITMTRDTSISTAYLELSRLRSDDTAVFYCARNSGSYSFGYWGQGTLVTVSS VL: DIQMTQSPSSVSASVGDRVTITCRASQGISSWLAWYQQKPGKAPKLLIFGASSLQSGVPSRFSGSGSGTDFTLTVSSLQPEDFATYYCQQAYSFPFAFGPGTKVDIE : 0.456

Source: patent US20250230247A1
